assay: NCI Yeast Anticancer Drug Screen. Data for the cln2 rad14 strain (AID 165);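 also: 0% = growth equal to vehicle treated cultures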; details: S. cerevisiae cln2 rad14 strain, at 50.0 µM, stronger effect = higher value
This is part of a sample that, as a whole, favours compounds with a hit. Of some 79,000 tested, about 15% had one in any assay.
Tag: 1 if measured growth inhibition is not below 40%, 0 if it is.

// known answers, use as guide
Query: Record O=[N+]([O-])C12CCCCC1([N+](=O)[O-])CCCC2 (stereo unspecified) ; criterion: growth inhibition no lower than 40%. Met?
Response: 0

Query: Record C/C=C1/C=CC2c3[nH]c4ccccc4c3CCN2C1 (stereo unspecified) ; criterion: growth inhibition no lower than 40%. Met?
Response: 0

Query: Record `COc1ccc2c(C)c(N=C=S)c(=O)oc2c1` ; criterion: growth inhibition no lower than 40%. Met?
Response: 0

Query: Record C/C(=N/NC(N)=S)C(CN(C)C)C(C1=C(O)c2ccccc2OC1)c1ccccc1 (stereo unspecified) ; criterion: growth inhibition no lower than 40%. Met?
Response: 1

Query: Record `O=C(CCl)OCC(=O)c1ccc(-c2ccccc2)cc1` ; criterion: growth inhibition no lower than 40%. Met?
Response: 0

---
Query: Record `CCCCCCCCS(=O)(=O)Nc1ccccc1` ; criterion: growth inhibition no lower than 40%. Met?
Response: 1

Query: Record `Oc1cccc(NCSc2ccc(Cl)cc2)c1` ; criterion: growth inhibition no lower than 40%. Met?
Response: 1

Query: Record `O=C(O)CC/C(=N\Nc1ccccc1)C(=O)O` ; criterion: growth inhibition no lower than 40%. Met?
Response: 1

Query: Record `COc1ccc2nc3cc(Cl)ccc3c(Nc3ccc(O)c(CN4CCN(C)CC4)c3)c2c1` ; criterion: growth inhibition no lower than 40%. Met?
Response: 0

Query: Record `CCOC(=O)NC(NNc1ccc([N+](=O)[O-])cc1[N+](=O)[O-])(C(F)(F)F)C(F)(F)F` ; criterion: growth inhibition no lower than 40%. Met?
Response: 1

* * *

assay: NCI Yeast Anticancer Drug Screen. Data for the mlh1 rad18 strain (AID 175); details: S. cerevisiae mlh1 rad18 strain growth inhibition; at 50.0 µM (retest, dose inferred, filed as 5.0); stronger effect = higher value
The panel holds about 79,000 compounds, 15% with a hit somewhere; the sample as a whole holds those more often. Calls of active or inactive are those of the source. Cut-off read from the data, not from the text of the source: active = growth inhibition above about 70%; inactive = the rest.
Quick reference: growth inhibition of the listed items.

Query: Which growth inhibition is reported for this compound? `Oc1cc(F)cc2cccnc12`
Response: 99% (active)

* * *

experiment: NCI Yeast Anticancer Drug Screen. Data for the rad50 strain (AID 155);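 also: 0% = growth of vehicle-only cultures of the same strain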; conditions: S. cerevisiae rad50 strain growth inhibition; at 5.0 µM (retest, dose inferred, filed as 0.5); stronger effect = higher value
The panel holds about 79,000 compounds, 15% with a hit somewhere; the sample as a whole holds those more often.
Tag: class 1 if measured growth inhibition is not below 10%, class 0 if it is.

Query: Record CCOC(=O)C1=C(N)OC(c2ccccc2)=C(C#N)C1c1ccc(C)cc1 (configuration not stated) ; criterion: growth inhibition no lower than 10%. Met?
Response: class 0

Query: Record `Cc1ccc(/C=N\NC(=S)N/N=C/c2ccc(C)cc2)cc1` ; criterion: growth inhibition no lower than 10%. Met?
Response: class 0

Query: Record `O=C1C(C=NC(=S)c2ccccc2)=C(O)c2ccccc21` ; criterion: growth inhibition no lower than 10%. Met?
Response: class 1

Query: Record `Nc1ccccc1Sc1ccccc1` ; criterion: growth inhibition no lower than 10%. Met?
Response: class 1

Query: Record `Cc1cccc(/C=N/NC(=S)Nc2ccc(Cl)cc2)n1` ; criterion: growth inhibition no lower than 10%. Met?
Response: class 0

Query: Record O=S(=O)(O)C(O)c1ccc2ccc3cccc4ccc1c2c34 (configuration not stated) ; criterion: growth inhibition no lower than 10%. Met?
Response: class 1

Query: Record `CCOC(=O)NC(NNc1ccc([N+](=O)[O-])cc1[N+](=O)[O-])(C(F)(F)F)C(F)(F)F` ; criterion: growth inhibition no lower than 10%. Met?
Response: class 0

Query: Record C=C(C)C1CC2=C(O1)C(=O)c1ccccc1C2=O (configuration not stated) ; criterion: growth inhibition no lower than 10%. Met?
Response: class 0

Lab note: next molecule to report on.
Query: Record `CCCCSc1nc2c([nH]1)c(=S)n(C)c(=S)n2C` ; criterion: growth inhibition no lower than 10%. Met?
Response: class 0

* * *

assay: NCI Yeast Anticancer Drug Screen. Data for the cln2 rad14 strain (AID 165);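 also: 0% = growth equal to vehicle treated cultures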; conditions: S. cerevisiae cln2 rad14 strain, at 50.0 µM (retest, dose inferred, filed as 5.0)
Compounds without any hit were thinned out: in the full panel of roughly 79,000, 15% have a hit. Activity calls are given as the source filed them. No stated cut-off is given here; in the data, active means growth inhibition above about 70%; inactive means the rest.
Your answer must be one of the following: label 1 (active), label 0 (inactive)

// known answers, use as guide
Query: Test call, this compound: `COc1ccc(OC(C)=O)c2c1CCC=CC2=O`
Response: label 1

Query: Test call, this compound: CCC1CCCN1CCOC(=O)C(c1ccccc1)C1C=CCC1 (stereo unspecified)
Response: label 0

Query: Test call, this compound: CC(=O)C1(C(C)=O)C2=C(C(=O)C(Cl)=C(Cl)C2=O)N2C=CC=CC21 (stereo unspecified)
Response: label 1

Query: Test call, this compound: CC12CCCCC1CCC(Br)C2=O (stereo unspecified)
Response: label 0

Query: Test call, this compound: `c1cc2c(cc1CCCCCCCCCCc1ccc3c(c1)CCC3)CCC2`
Response: label 0

Lab note: next compound to report on.
Query: Test call, this compound: O=C(Cc1ccccc1)OC(C(=O)c1ccccc1)c1ccccc1 (stereo unspecified)
Response: label 1

* * *

assay: NCI Yeast Anticancer Drug Screen. Data for the mec2-1 strain (AID 157); conditions: S. cerevisiae mec2-1 strain, at 50.0 µM, stronger effect = higher value
The panel holds about 79,000 compounds, 15% with a hit somewhere; the sample as a whole holds those more often.
Tag: y if measured growth inhibition is not below 40%, n if it is.

// known answers, use as guide
Query: Record CCOC(=O)C1=NNC(C(=O)c2ccccc2)C1c1ccccc1 (configuration not stated) ; criterion: growth inhibition no lower than 40%. Met?
Response: n

Query: Record `COc1cc(NCCCCCNC(C)C)c2ncc(C)c(C)c2c1` ; criterion: growth inhibition no lower than 40%. Met?
Response: y

Query: Record OC(Cc1cccnc1)(c1ccccc1)c1ccc(Cl)cc1 (configuration not stated) ; criterion: growth inhibition no lower than 40%. Met?
Response: y

Query: Record `c1ccc2c(c1)C[N+]1(CCCCCCC1)C2` ; criterion: growth inhibition no lower than 40%. Met?
Response: y

---
Query: Record `O=C(Nc1nnc(-c2ccccc2)s1)c1cc(=O)c2cc(Cl)ccc2o1` ; criterion: growth inhibition no lower than 40%. Met?
Response: y

Query: Record `Cc1c2c(c(C)c3c4c(oc13)CCCC4)C=NCC2` ; criterion: growth inhibition no lower than 40%. Met?
Response: y

Query: Record CC1(C)C2CCC(C2)C1OC(=O)c1ccccc1C(=O)O (configuration not stated) ; criterion: growth inhibition no lower than 40%. Met?
Response: n

* * *

test: NCI Yeast Anticancer Drug Screen. Data for the mec2-1 strain (AID 157); settings: S. cerevisiae mec2-1 strain, at 50.0 µM (retest, dose inferred, filed as 5.0)
Compounds without any hit were thinned out: in the full panel of roughly 79,000, 15% have a hit. Calls of active or inactive are those of the source. Rule as the data show it: active = growth inhibition above about 70%; inactive = the rest.
Your answer must be one of the following: T (active), F (inactive)

// known answers, use as guide
Query: Test call, this compound: `S=c1sc2ccccc2n1CNc1ccccc1`
Response: F

Query: Test call, this compound: COC(=O)[C@@]12OC[C@]34[C@H]([C@@H](O)[C@@H]1O)[C@@]1(C)CC(=O)C(O)=C(C)[C@@H]1C[C@H]3OC(=O)[C@H](OC(=O)C(Cc1ccccc1)NC(=O)OC(C)(C)C)[C@@H]24 (stereo partly drawn)
Response: F

---
Query: Test call, this compound: c1ccc2c(c1)cc(C1NCCc3[nH]cnc31)c1ccccc12 (stereo not drawn)
Response: T

* * *

test: NCI Yeast Anticancer Drug Screen. Data for the bub3 strain (AID 167); conditions: S. cerevisiae bub3 mutant strain, at 5.0 µM (retest, dose inferred, filed as 0.5), stronger effect = higher value
The panel holds about 79,000 compounds, 15% with a hit somewhere; the sample as a whole holds those more often.
Quick reference: growth inhibition of the listed items.
Write the value in % as a bare number.

Below, 2 compounds whose answers are already recorded.
Query: Which growth inhibition is reported for this compound? `Cc1ccc(C)c2[nH]c(-c3ccccc3)cc12`
Response: -5

Query: Which growth inhibition is reported for this compound? O=C1CCC(Cc2ccc(C(F)(F)F)cc2)C(=O)N1 (configuration not stated)
Response: -2

---
Query: Which growth inhibition is reported for this compound? c1ccc(B2OC(c3ccccc3)C(c3ccccc3)O2)cc1 (configuration not stated)
Response: -4

Query: Which growth inhibition is reported for this compound? `CCCOc1ccc(/C=N/NC(N)=S)cc1`
Response: -72

Query: Which growth inhibition is reported for this compound? `COc1ccc2c(c1)CCCN2CCCCCCCCCN1CCCCC1`
Response: 45

Query: Which growth inhibition is reported for this compound? `O=[N+]([O-])c1c(Br)ncn1Cc1ccccc1`
Response: 35

Query: Which growth inhibition is reported for this compound? `C(=C\c1cnnc2ccccc12)/c1ccco1`
Response: -2
